B1: ZNF24 (parent)
chain: THTKEQILELVVLEQFVAILPKEL

Variants of: B1
Assay: protein stability index of a GFP-peptide fusion (GPS, HEK-293T) (PSI 1-6); higher = more stable;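 further: lentivirally expressed fusions sorted by FACS into six bins by GFP to DsRed ratio, PSI derived from sequencing read proportions per bin multiplied by bin number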
Settings: c terminus: a fixed tail appended
protein stability index: recorded values
experimental_readout: protein stability index

• P21R = 3.28
• T1Q = 1.32
• T3Q = 2.81
• L10Y = 2.69
• L20H = 1.67
• L13D = 2.29
• Q15H = 2.53
• V12C = 2.23
• K4Q = 2.59
• Q6Y = 4.9
• K4D = 2.45
• E14K = 2.61
• K4W = 2.88
• H2T = 2.23
• T1W = 2.72
• H2V = 2.41
• E9M = 2.04
• L8V = 2.4
• T3E = 3.23
• I19H = 2.32
• E23R = 2.77
• V17K = 1.54
• E9L = 2.62
• H2W = 3.14
• E23L = 1.68
• T1Y = 2.79
• H2Y = 2.19
• V11Q = 2.05
• L10K = 2.04
• T3M = 3.02
• E23D = 2.29
• T1G = 2.25
• A18C = 3.45
• L13T = 2.77
• K22M = 3.15
• L8K = 1.84
• E23Q = 2.54
• F16C = 1.77
• L24E = 1.7
• L20P = 2.78
• V12N = 2.14
• V11I = 3.03
• L24M = 2.8
• Q15S = 2.93
• K22F = 3.51
• L20C = 2.24
